PROTOCOL_NOTES: Human HepG2 cell viability assay in 384 well format
Type: toxicity, cell-based
Parameters: dose 125 nL, time 70.5 hour; concentration not given beside the values
TEST_PARAMETERS: HepG2 cells, read-out: Inhibition
Listed here: items and their measured cytotoxicity at 70.5 h.
Hi! Could you send only the number? It should be in %, unit omitted.

GET /value?item= "CN(Cc1nnc(C2CC2)n1C)S(=O)(=O)Cc1ccccc1F" &field=cytotoxicity at 70.5 h returns -20.7

Others:
GET /value?item= O=C(O)C1(Cc2cccc(-c3cccs3)c2)CCCNC1 (stereo not given) &field=cytotoxicity at 70.5 h returns 14.3

GET /value?item= "Cc1nnc(N2CCO[C@H]3[C@@H](OCc4ccccn4)CC[C@@H]32)s1" &field=cytotoxicity at 70.5 h returns -2.28

GET /value?item= CN(C)c1nc2c(c(N3CCC(O)CC3)n1)CN(CC1CCOC1)CC2 (stereo not given) &field=cytotoxicity at 70.5 h returns -3.69

GET /value?item= "Cc1cc2nc(CO[C@H]3CN(C)C[C@H]3F)[nH]c2cc1C" &field=cytotoxicity at 70.5 h returns -0.513

GET /value?item= "COC(=O)C1CCN(CC2(c3ccc(C)cn3)CCNCC2)CC1" &field=cytotoxicity at 70.5 h returns -2.35

GET /value?item= c1ccc(-n2cc(CNC3CCc4ncnn4C3)cn2)cc1 (stereo not given) &field=cytotoxicity at 70.5 h returns -4.52

GET /value?item= "COc1ccc(CN(C)C(=O)Cc2c(C)nn(C)c2C)cc1F" &field=cytotoxicity at 70.5 h returns 2.24

###

PROTOCOL_NOTES: Human HepG2 cell viability assay in 384 well format
Assay type: toxicity, cell-based
Parameters: dose 125 nL, time 70.5 hour; concentration not given beside the values
TEST_PARAMETERS: HepG2 cells, read-out: Inhibition
MEASURED_ATTRIBUTE: cytotoxicity at 70.5 h (%)
Hi! Could you send only the number? It should be in %, unit omitted.

Example entries and their recorded answers appear below.
GET /value?item= Cc1ccc(C)c(S(=O)(=O)N2CCN(C)C3(CCC(=O)N(C)CC3)C2)c1 (stereo not given) &field=cytotoxicity at 70.5 h returns -13.3

GET /value?item= "c1cc(-c2c[nH]c([C@@H]3COCCN3Cc3csnn3)n2)ccn1" &field=cytotoxicity at 70.5 h returns 12.8

GET /value?item= "COc1ccc(OC)c(CNC(=O)N2CCC(n3cncn3)CC2)c1" &field=cytotoxicity at 70.5 h returns 35

GET /value?item= O=C(NCC(=O)N1CCCC1Cc1cccc(F)c1)c1ccccn1 (stereo not given) &field=cytotoxicity at 70.5 h returns -9.78

GET /value?item= O=C1CC(c2cccs2)Cc2nc(O)c(C(=O)N3CCCC3)cc21 (stereo not given) &field=cytotoxicity at 70.5 h returns -4.55

Others:
GET /value?item= Cc1ccc(N2CCC3(CCCN(C(=O)c4cccnc4)C3)C2)nn1 (stereo not given) &field=cytotoxicity at 70.5 h returns 18.8

GET /value?item= "CCc1ncc(C(=O)N(C)C2Cc3ccccc3C2)cn1" &field=cytotoxicity at 70.5 h returns 2.28

GET /value?item= "CCn1nc(C)c(S(=O)(=O)N(C)c2ccc(Cl)cn2)c1C" &field=cytotoxicity at 70.5 h returns 12

GET /value?item= O=C(c1cnc(-c2cccs2)s1)N1CCCC(n2cccn2)C1 (stereo not given) &field=cytotoxicity at 70.5 h returns -4.26

GET /value?item= "Cn1cc(-c2ncnc3c2CCN(C(=O)c2cnccn2)CC3)cn1" &field=cytotoxicity at 70.5 h returns 1.04
